src = paper PMC10838372

# ASSAYED_TARGET: the molecule itself
# ASSAY_DETAILS: SEC
Consider the following proteins and their measured stoichiometry N readings.

# PROTEIN, stoichiometry N
records = [
    ("DHO domain of human CAD, variant K1482M (domain or fragment, UniProt P27708 1456-1846, looked up) MTSQKLVRLPGLIDVHVHLREPGGTHMEDFASGTAAALAGGITMVCAMPNTRPPIIDAPALALAQKLAEAGARCDFALFLGASSENAGTLGTVAGSAAGLKLYLNETFSELRLDSVVQWMEHFETWPSHLPIVAHAEQQTVAAVLMVAQLTQRSVHICHVARKEEILLIKAAKARGLPVTCEVAPHHLFLSHDDLERLGPGKGEVRPELGSRQDVEALWENMAVIDCFASDHAPHTLEEKCGSRPPPGFPGLETMLPLLLTAVSEGRLSLDDLLQRLHHNPRRIFHLPPQEDTYVEVDLEHEWTIPSHMPFSKAHWTPFEGQKVKGTVRRVVLRGEVAYIDGQVLVPPGYGQDVRKWPQGAVPQLPPSAPATSEMTTTPERPRRGIPGLPD", 2),
    ("DHO domain of human CAD, variant R1785C (domain or fragment, UniProt P27708 1456-1846, looked up) MTSQKLVRLPGLIDVHVHLREPGGTHKEDFASGTAAALAGGITMVCAMPNTRPPIIDAPALALAQKLAEAGARCDFALFLGASSENAGTLGTVAGSAAGLKLYLNETFSELRLDSVVQWMEHFETWPSHLPIVAHAEQQTVAAVLMVAQLTQRSVHICHVARKEEILLIKAAKARGLPVTCEVAPHHLFLSHDDLERLGPGKGEVRPELGSRQDVEALWENMAVIDCFASDHAPHTLEEKCGSRPPPGFPGLETMLPLLLTAVSEGRLSLDDLLQRLHHNPRRIFHLPPQEDTYVEVDLEHEWTIPSHMPFSKAHWTPFEGQKVKGTVRCVVLRGEVAYIDGQVLVPPGYGQDVRKWPQGAVPQLPPSAPATSEMTTTPERPRRGIPGLPD", 2),
    ("DHO domain of human CAD, variant R1810Q (domain or fragment, UniProt P27708 1456-1846, looked up) MTSQKLVRLPGLIDVHVHLREPGGTHKEDFASGTAAALAGGITMVCAMPNTRPPIIDAPALALAQKLAEAGARCDFALFLGASSENAGTLGTVAGSAAGLKLYLNETFSELRLDSVVQWMEHFETWPSHLPIVAHAEQQTVAAVLMVAQLTQRSVHICHVARKEEILLIKAAKARGLPVTCEVAPHHLFLSHDDLERLGPGKGEVRPELGSRQDVEALWENMAVIDCFASDHAPHTLEEKCGSRPPPGFPGLETMLPLLLTAVSEGRLSLDDLLQRLHHNPRRIFHLPPQEDTYVEVDLEHEWTIPSHMPFSKAHWTPFEGQKVKGTVRRVVLRGEVAYIDGQVLVPPGYGQDVQKWPQGAVPQLPPSAPATSEMTTTPERPRRGIPGLPD", 2),
]
